test-target: UniProtKB P02768
method-description: Human serum albumin index was measured by retention time on an HPLC column containing human albumin
Exercise: for every item that follows, state its recorded HSAI.
Numbers only.

Below: 3 compounds and their reported HSAI.
[[record]]
smiles_entry = "O=C(c1ccc(Br)s1)c1c(O)nc2cc(Cl)ccc2c1O"
val = 40

[[record]]
smiles_entry = "C=C(C)COc1cccc(C2=C(O)/C(=C/CC)NC2=O)c1"
val = 13

[[record]]
smiles_entry = "O=C(c1c(O)nc2cc(Cl)ccc2c1O)c1csc2ccccc12"
val = 59


For the next question, use this compound.
# input Give its HSAI value. Item: Oc1nc2cc(Cl)ccc2c(O)c1-c1cccc(Cc2ccc(CCN3CCOCC3)cc2)c1
# output 49

###

test-target: UniProt P02768
method-description: Human serum albumin index was measured by retention time on an HPLC column containing human albumin
HSAI strictly less than 10 = YES. Otherwise NO.

Example results:
[[record]]
compound = "C=C(C)COc1cccc(-c2c(O)nc3cc(Cl)ccc3c2O)c1"
class_assignment = "NO"

[[record]]
compound = "Oc1nc2cc(Cl)ccc2c(O)c1-c1ccc(F)cc1"
class_assignment = "YES"

[[record]]
compound = "COCOc1ccc(Cc2cccc(-c3c(O)c4ccc(Cl)cc4[nH]c3=O)c2)cc1"
class_assignment = "NO"

[[record]]
compound = "O=C(c1ccc(Cl)s1)c1c(O)nc2cc(Cl)ccc2c1O"
class_assignment = "NO"


# input Decide: HSAI of O=c1[nH]c2cc(Cl)ccc2c(O)c1-c1cccc(Oc2ccsc2)c1 strictly below 10?
# output NO

###

test-target: Albumin (Homo sapiens)
Sequence (P02768 whole entry): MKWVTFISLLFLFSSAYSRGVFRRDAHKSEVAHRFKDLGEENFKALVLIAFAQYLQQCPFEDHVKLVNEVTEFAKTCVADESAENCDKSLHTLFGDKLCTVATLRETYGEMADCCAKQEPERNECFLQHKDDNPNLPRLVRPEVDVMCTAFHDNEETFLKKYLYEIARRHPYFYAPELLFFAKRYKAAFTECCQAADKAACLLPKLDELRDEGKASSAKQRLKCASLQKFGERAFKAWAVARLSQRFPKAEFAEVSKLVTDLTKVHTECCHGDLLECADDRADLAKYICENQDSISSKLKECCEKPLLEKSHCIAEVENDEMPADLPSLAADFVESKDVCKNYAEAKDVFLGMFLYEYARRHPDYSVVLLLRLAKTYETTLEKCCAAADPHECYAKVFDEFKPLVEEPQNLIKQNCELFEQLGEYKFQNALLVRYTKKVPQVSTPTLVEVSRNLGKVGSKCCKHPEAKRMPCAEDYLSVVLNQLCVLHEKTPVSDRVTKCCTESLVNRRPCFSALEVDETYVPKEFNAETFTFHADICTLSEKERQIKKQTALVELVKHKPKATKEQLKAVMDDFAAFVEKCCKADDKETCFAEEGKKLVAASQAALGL
method-description: Human serum albumin index was measured by retention time on an HPLC column containing human albumin
Exercise: for every item that follows, state its recorded HSAI.
Numbers only.

[[record]]
smiles_entry = "O=C(O)c1cc(O)c2c(Cl)cc(Cl)cc2n1"
test_target = "Albumin (Homo sapiens)"
val = 5

[[record]]
smiles_entry = "COc1ccc(Cc2cccc(-c3c(O)c4ccc(Cl)cc4[nH]c3=O)c2)cc1"
test_target = "Albumin (Homo sapiens)"
val = 97


Look at each compound and report its HSAI.
1. O=C(OCC#Cc1cccc(O)c1)c1c(O)c2ccc(Cl)cc2[nH]c1=O
2. Oc1nc2cc(Cl)ccc2c(O)c1-c1cccc(Cc2ccoc2)c1
3. COCCOCOc1ccc(Cc2cccc(-c3c(O)nc4cc(Cl)ccc4c3O)c2)cc1

# output
[213, 50, 56]

###

Exercise: for every item that follows, state its recorded logP.
method-description: Partition coefficient (logP)
Type: physicochemical
condition-summary: octanol/water
Answers are plain numbers.

Below: 4 compounds and their reported logP.
[[record]]
smiles_entry = "N[C@H](Cc1cc(I)c(OCCc2ccc(O)cc2)c(I)c1)C(=O)O"
val = 2

[[record]]
smiles_entry = "COc1ccc(Cc2cccc(-c3c(O)c4ccc(Cl)cc4[nH]c3=O)c2)cc1"
val = 2.81

[[record]]
smiles_entry = "O=c1[nH]c2cc(Cl)ccc2c(O)c1-c1cccc(Oc2ccccc2)c1"
val = 2.9

[[record]]
smiles_entry = "COCOc1ccc(Cc2cccc(-c3c(O)c4ccc(Cl)cc4[nH]c3=O)c2)cc1"
val = 3.34


For the next question, use this compound.
# input Give its logP value. Item: Oc1nc2cc(Cl)ccc2c(O)c1-c1ccc2c(c1)Oc1ccccc1O2
# output 4.5
